ASSAY COMMENT: Probe fluorescence ratio response to arachidonic acid relative to ADIFAB2
Format: binding
TEST PARAMETERS: arachidonic acid; response relative to ADIFAB2
Mark yes (1) only when DR/DR AA stays strictly below 0.6. Values equal to the cut-off are no (0).

[
  {
    "MOLECULE": "60T 104T 115W 74F 72A (protein, listed as Rattus norvegicus, PEPTIDE (1)...(131) wild-type rat intestinal fatty acid binding protein) AFDGTWKVDRNENYEKFMEKMGINVVKRKLGAHDNLKLTITQEGNKFTVKESSNFRNIDTVFELGVDFAYSAAFGTELTGTWTMEGNKLVGKFKRVDNGKELITVREISGNELIWTYTYEGVEAKRIFKKE",
    "CLASS LABEL": "no (0)"
  }
]

Q: Answer whether the molecule 14L 18L 31Y 73L 117A 72A (protein, listed as Rattus norvegicus, PEPTIDE (1)...(131) wild-type rat intestinal fatty acid binding protein) AFDGTWKVDRNENLEKFLEKMGINVVKRKLYAHDNLKLTITQEGNKFTVKESSNFRNIDVVFELGVDFAYSALDGTELTGTWTMEGNKLVGKFKRVDNGKELIAVREISGNELIQTATYEGVEAKRIFKKE has DR/DR AA strictly less than 0.6
A: no (0)

Q: I'd appreciate it if you could check whether 70S, 72A (protein, listed as Rattus norvegicus, PEPTIDE (1)...(131) wild-type rat intestinal fatty acid binding protein) AFDGTWKVDRNENYEKFMEKMGINVVKRKLGAHDNLKLTITQEGNKFTVKESSNFRNIDVVFELGVDFASSAADGTELTGTWTMEGNKLVGKFKRVDNGKELIAVREISGNELIQTYTYEGVEAKRIFKKE has DR/DR AA smaller than 0.6.
A: no (0)

Q: DR/DR AA under 0.6? Item: 55V, 72A (protein, listed as Rattus norvegicus, PEPTIDE (1)...(131) wild-type rat intestinal fatty acid binding protein) AFDGTWKVDRNENYEKFMEKMGINVVKRKLGAHDNLKLTITQEGNKFTVKESSNVRNIDVVFELGVDFAYSAADGTELTGTWTMEGNKLVGKFKRVDNGKELIAVREISGNELIQTYTYEGVEAKRIFKKE
A: yes (1)

Q: Say whether its DR/DR AA is strictly beneath 0.6. Entry: 60W, 72A (protein, listed as Rattus norvegicus, PEPTIDE (1)...(131) wild-type rat intestinal fatty acid binding protein) AFDGTWKVDRNENYEKFMEKMGINVVKRKLGAHDNLKLTITQEGNKFTVKESSNFRNIDWVFELGVDFAYSAADGTELTGTWTMEGNKLVGKFKRVDNGKELIAVREISGNELIQTYTYEGVEAKRIFKKE
A: no (0)

Q: I'd appreciate it if you could check whether 17H, 72A (protein, listed as Rattus norvegicus, PEPTIDE (1)...(131) wild-type rat intestinal fatty acid binding protein) AFDGTWKVDRNENYEKHMEKMGINVVKRKLGAHDNLKLTITQEGNKFTVKESSNFRNIDVVFELGVDFAYSAADGTELTGTWTMEGNKLVGKFKRVDNGKELIAVREISGNELIQTYTYEGVEAKRIFKKE has DR/DR AA smaller than 0.6.
A: yes (1)
